- assayedTarget: recombinant human MASP2 active protease (amino acids 297-686, C-terminal His Tag) (human, UniProt O00187 297-686)
- Sequence (O00187 other isoform, or with tags, fused parts or gaps limits assumed): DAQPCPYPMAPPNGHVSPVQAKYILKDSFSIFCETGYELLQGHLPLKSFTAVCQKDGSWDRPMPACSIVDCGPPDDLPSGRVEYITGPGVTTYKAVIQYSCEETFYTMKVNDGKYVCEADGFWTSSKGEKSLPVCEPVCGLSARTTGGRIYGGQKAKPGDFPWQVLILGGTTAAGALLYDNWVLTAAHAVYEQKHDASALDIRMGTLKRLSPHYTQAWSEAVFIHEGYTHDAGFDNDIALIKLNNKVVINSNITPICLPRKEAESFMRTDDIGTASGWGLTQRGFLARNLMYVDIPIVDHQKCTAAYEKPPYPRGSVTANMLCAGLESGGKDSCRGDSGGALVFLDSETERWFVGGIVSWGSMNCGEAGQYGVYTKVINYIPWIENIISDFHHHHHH
- procedureSummary: cell-based or functional assay
Numbered stars: 1 amine (or outer) side, 2 acyl side, 3 side chain; on linkers, the order of the positions; unused ones are H or OH. Bridge positions count the residues as written; N and C are the ends. Square brackets hold non-standard residues; d marks the D form. Ends that are not written are not given here. Phe(2,3-F2) = (2S)-3-(2,3-difluorophenyl)-2-aminopropanoic acid, O=C([C@H](Cc1cccc(F)c1F)N[*:1])[*:2]; Hyp = O=C(O)[C@@H]1C[C@@H](O)CN1; tBuAla = CC(C)(C)C[C@H](N)C(=O)O; Pen = CC(C)(S)[C@H](N)C(=O)O; NMeC = CN[C@@H](CS)C(=O)O; Sar = CNCC(=O)O
endpointName: human MASP2 IC50 (nM)

INSERT INTO results (binder, unit, reportedvalue) VALUES
  ('Pivalic-ICSRS[tBuAla]PPI[NMeC]I-NH2 (disulfide 2-10) [Example 398: (Pivalic)-IC+SRS-((tBu)A)-PPI-((N-Me)C)+I-NH2]', 'nM', 22),
  ('GICSRSLPPICI[Hyp]D-OH (disulfide 3-11; N-terminus assumed; SMILES CC[C@H](C)[C@H](NC(=O)CN)C(=O)N[C@H]1CSSC[C@@H](C(=O)N[C@H](C(=O)N2C[C@H](O)C[C@H]2C(=O)N[C@@H](CC(=O)O)C(=O)O)[C@@H](C)CC)NC(=O)[C@H]([C@@H](C)CC)NC(=O)[C@@H]2CCCN2C(=O)[C@@H]2CCCN2C(=O)[C@H](CC(C)C)NC(=O)[C@H](CO)NC(=O)[C@H](CCCNC(=N)N)NC(=O)[C@H](CO)NC1=O) [Example 348: GIC+SRSLPPIC+I-(Hyp)-D-OH]', 'nM', 690),
  ('[Sar]ICSRS[Phe(2,3-F2)]PPI[Pen]IP-NH2 (disulfide 3-11; N-terminus assumed; SMILES CC[C@H](C)[C@H](NC(=O)CNC)C(=O)N[C@H]1CSSC(C)(C)[C@@H](C(=O)N[C@H](C(=O)N2CCC[C@H]2C(N)=O)[C@@H](C)CC)NC(=O)[C@H]([C@@H](C)CC)NC(=O)[C@@H]2CCCN2C(=O)[C@@H]2CCCN2C(=O)[C@H](Cc2cccc(F)c2F)NC(=O)[C@H](CO)NC(=O)[C@H](CCCNC(=N)N)NC(=O)[C@H](CO)NC1=O) [Example 440: ((N-Me)G)-IC+SRS-((2S)-3-(2,3-difluorophenyl)-2-aminopropanoic acid)-PPI-(Pen)+IP-NH2]', 'nM', 26);
